Conditions: buffer; pH 7.4; 200.0 µM
Provide the recorded solubility kinetic for the entries that follow.

What the record says about O=C(COC(=O)c1cccnc1Cl)NCCC1=CCCCC1 : solubility kinetic is > 48.4 µg/mL

Item: CC(C)CNC(=O)c1ccc2c(c1)C(=O)N(C1CCCCC1)C2=O | solubility kinetic: 4.4 µg/mL

Reported solubility kinetic for O=C(NNC(=O)C12CC3CC(CC(C3)C1)C2)c1ccccc1F was > 47.5 µg/mL

Entry C=CCN=C1CC(C)(C)C(C(=O)OC)C(O)=C1C(=O)CCC (centres undefined) — recorded solubility kinetic = > 46.1 µg/mL

---

Conditions: buffer; pH 7.4; 200.0 µM
readout.label: solubility kinetic

Entry Cc1nc(-c2ccc(NC(=O)c3ccc(Br)o3)cc2)cs1 , solubility kinetic reported as < 0.4 µg/mL

Noted for O=C(O)c1cc(-c2ccc(Br)s2)nc2ccccc12 : its solubility kinetic reads > 50.1 µg/mL

Memo: COc1ccc(S(=O)(=O)N2CCOCC2)cc1NS(=O)(=O)c1ccc(F)c(F)c1 , reported solubility kinetic: > 67.3 µg/mL

So, C=CCC1(C#N)C(=S)NC(C)=C(C(=O)OCC)C1c1ccccc1 (stereo not given) ? Its solubility kinetic was > 51.1 µg/mL

Consider S=C(NCc1ccco1)N/N=C/c1ccncc1 . Its measured solubility kinetic is > 39 µg/mL

Recorded solubility kinetic (compound CSc1nc(-c2ccccc2)cc(C)c1C#N ): < 0.3 µg/mL

Form: compound = CC(=O)c1cccc(NC(=O)c2cc(-c3cccs3)on2)c1 ; solubility kinetic = < 0.3 µg/mL

Please fill in: solubility kinetic reported for CC(C)NC(=O)C1c2ccccc2Oc2ccccc21 = 1.1 µg/mL

Documented solubility kinetic of CCOCCCNC(=O)C1c2ccccc2Oc2ccccc21 : 13.6 µg/mL

Summary for this compound, COc1ccc2oc(=O)c(C(=O)NCCc3ccc(OC)c(OC)c3)cc2c1 : solubility kinetic is < 0.8 µg/mL

Memo: N#Cc1cccnc1N1CCC(C(N)=O)CC1 , reported solubility kinetic: > 34.5 µg/mL

The reported solubility kinetic of the compound CNCc1ccccc1Sc1ccc(O)c(O)c1.O=C([O-])/C=C\C(=O)[O-] was 31.5 µg/mL

// recorded solubility kinetic for O/N=C/Cc1[nH]c2ccccc2c1-c1ccccc1 : 34.8 µg/mL

// O=C(Nc1ccncc1)c1cccc2ccccc12 : solubility kinetic value = > 37.2 µg/mL

Entry CN(C)Cc1ccccc1CCc1ccccc1.Cl ; solubility kinetic = 23.9 µg/mL

The compound listed as CN(C)CCOC(=O)NC12CC3CC(CC(C3)C1)C2.Cl shows solubility kinetic equal to > 45.4 µg/mL

For reference, reported solubility kinetic for Nc1nc(SCC(=O)Nc2cccnc2Cl)n[nH]1 stands at > 42.7 µg/mL

solubility kinetic reported for this compound S=C(NCCC1=CCCCC1)NCc1ccco1 : 38.8 µg/mL

What the record says about O=[N+]([O-])c1ccc(SCCO)nc1SCCO : solubility kinetic is > 41.4 µg/mL

Record Cc1ccccc1NC(=O)c1cc(-c2ccccc2)n(CCCN2CCOCC2)c1C . Reported solubility kinetic: 16.3 µg/mL
